System: Toxoplasma gondii RH 2F1 tachyzoites (intracellular in HFF)
Assay: parasite survival relative to DMSO control; higher = less antiparasitic activity, active = 20 or less
Details: 1 µM; 72 h
Some molecules, each annotated with its measured parasite survival.
Provide the reading as a plain figure in %.

Some entries whose results are on file:
MOLECULE	TARGET OR SYSTEM	READOUT	MEASURE UNIT	VALUE
O=C(Nc1nnc(-c2ccc(Cl)cc2)o1)c1nc2ccccc2s1	Toxoplasma gondii RH 2F1 tachyzoites (intracellular in HFF)	parasite survival	%	62.5
O=C(O)C(Cc1c[nH]c2ccccc12)N1C(=O)c2ccccc2C1=O (stereo unspecified)	Toxoplasma gondii RH 2F1 tachyzoites (intracellular in HFF)	parasite survival	%	46.6
CCc1cc(Nc2cc(=O)n(CCN3CCN(C(=O)c4ccccc4)CC3)c(=O)[nH]2)ccc1C	Toxoplasma gondii RH 2F1 tachyzoites (intracellular in HFF)	parasite survival	%	26
Cn1cncc1[C@@](N)(c1ccc(Cl)cc1)c1ccc2c(c1)c(-c1cccc(Cl)c1)cc(=O)n2C	Toxoplasma gondii RH 2F1 tachyzoites (intracellular in HFF)	parasite survival	%	59.1
CN(C)c1[nH]c(=O)ncc1F	Toxoplasma gondii RH 2F1 tachyzoites (intracellular in HFF)	parasite survival	%	36.6
Nc1nnc(-c2ccc(Cl)cc2)s1	Toxoplasma gondii RH 2F1 tachyzoites (intracellular in HFF)	parasite survival	%	59.9

Recorded parasite survival (molecule CCCCN1C[C@H](O)[C@@H](O)[C@H](O)[C@H]1CO ): 61.5

The reported numbers originate from the supplement of paper PMC10941209.
